Each entry below lists one item and its recorded inhibition at 0.01 µM value.
# Test system: human umbilical vein endothelial cells (HUVEC)
# Protocol Description: HUVEC proliferation assay
# Type: cell-based
# Condition: Homo sapiens, HUVEC, Table II screening results; 10 nM; crude combinatorial amide library; read-out: % inhibition @ 10 nM
Answer format reminder: number followed by unit.

[
  {
    "Compound": "CCCN(CCC)CC(=O)Nc1cccc(-c2csc(-c3sc(NC(=O)NC)nc3N)n2)c1",
    "Measured Property": "inhibition at 0.01 µM",
    "Observed": "0%"
  },
  {
    "Compound": "CNC(=O)Nc1nc(N)c(-c2nc(-c3cccc(NC(=O)Cc4cccnc4)c3)cs2)s1",
    "Measured Property": "inhibition at 0.01 µM",
    "Observed": "-27%"
  },
  {
    "Compound": "CNC(=O)Nc1nc(N)c(-c2nc(-c3cccc(NC(=O)C4CCN(C(C)=O)CC4)c3)cs2)s1",
    "Measured Property": "inhibition at 0.01 µM",
    "Observed": "-15%"
  },
  {
    "Compound": "CNC(=O)Nc1nc(N)c(-c2nc(-c3cccc(NC(=O)C4CCSCN4C)c3)cs2)s1 (stereo not drawn)",
    "Measured Property": "inhibition at 0.01 µM",
    "Observed": "62%"
  },
  {
    "Compound": "CCC(C(=O)Nc1cccc(-c2csc(-c3sc(NC(=O)NC)nc3N)n2)c1)c1ccccc1C (stereo not drawn)",
    "Measured Property": "inhibition at 0.01 µM",
    "Observed": "9%"
  },
  {
    "Compound": "CNC(=O)Nc1nc(N)c(-c2nc(-c3cccc(NC(=O)/C=C(\\C)c4ccccc4C)c3)cs2)s1",
    "Measured Property": "inhibition at 0.01 µM",
    "Observed": "20%"
  },
  {
    "Compound": "CNC(=O)Nc1nc(N)c(-c2nc(-c3cccc(NC(=O)C4=CCCN(C)C4)c3)cs2)s1",
    "Measured Property": "inhibition at 0.01 µM",
    "Observed": "43%"
  },
  {
    "Compound": "CNC(=O)Nc1nc(N)c(-c2nc(-c3cccc(NC(=O)C4CCCO4)c3)cs2)s1 (stereo not drawn)",
    "Measured Property": "inhibition at 0.01 µM",
    "Observed": "-33%"
  }
]

So what's the measured inhibition at 0.01 µM for this one? CNC(=O)Nc1nc(N)c(-c2nc(-c3cccc(NC(=O)[C@@H]4CCC[C@@H]4O)c3)cs2)s1
13%

For CNC(=O)Nc1nc(N)c(-c2nc(-c3cccc(NC(=O)c4cc(C)n(O)n4)c3)cs2)s1 then?
13%

For CNC(=O)Nc1nc(N)c(-c2nc(-c3cccc(NC(=O)C4CCOC4)c3)cs2)s1 (stereo not drawn) then?
-8%

For CNC(=O)Nc1nc(N)c(-c2nc(-c3cccc(NC(=O)C4CC5C=CC4CC5)c3)cs2)s1 (stereo not drawn) then?
45%

For CNC(=O)Nc1nc(N)c(-c2nc(-c3cccc(NC(=O)C4CCCC(OC)C4)c3)cs2)s1 (stereo not drawn) then?
5%

For CNC(=O)Nc1nc(N)c(-c2nc(-c3cccc(NC(=O)C4CC5C=CCC(C5)C4)c3)cs2)s1 (stereo not drawn) then?
55%

For CNC(=O)Nc1nc(N)c(-c2nc(-c3cccc(NC(=O)c4cc(C)nn4C)c3)cs2)s1 then?
39%

For CNC(=O)Nc1nc(N)c(-c2nc(-c3cccc(NC(=O)CCCN(C)C)c3)cs2)s1 then?
-40%

For CNC(=O)Nc1nc(N)c(-c2nc(-c3cccc(NC(=O)CC(C)(C)NC(C)=O)c3)cs2)s1 then?
-11%

For CCNc1ccccc1C(=O)Nc1cccc(-c2csc(-c3sc(NC(=O)NC)nc3N)n2)c1 then?
29%

For CC/C=C(\C)C(=O)Nc1cccc(-c2csc(-c3sc(NC(=O)NC)nc3N)n2)c1 then?
67%

For CNC(=O)Nc1nc(N)c(-c2nc(-c3cccc(NC(=O)c4cccc5[nH]ccc45)c3)cs2)s1 then?
2%

For CNC(=O)Nc1nc(N)c(-c2nc(-c3cccc(NC(=O)C(C)ON=C(C)C)c3)cs2)s1 (stereo not drawn) then?
-7%

For CNC(=O)Nc1nc(N)c(-c2nc(-c3cccc(NC(=O)Cc4cc(F)cc(F)c4)c3)cs2)s1 then?
-10%

For CNC(=O)Nc1nc(N)c(-c2nc(-c3cccc(NC(=O)c4cc(=O)cco4)c3)cs2)s1 then?
27%

For CNC(=O)Nc1nc(N)c(-c2nc(-c3cccc(NC(=O)C4CCC(=O)CC4)c3)cs2)s1 then?
12%

For CNC(=O)Nc1nc(N)c(-c2nc(-c3cccc(NC(=O)Cc4cc(F)ccc4F)c3)cs2)s1 then?
4%

For CNC(=O)Nc1nc(N)c(-c2nc(-c3cccc(NC(=O)c4cc(C)n[nH]4)c3)cs2)s1 then?
-22%

FYI, the data here is from patent US6620828B2.
